Data origin, for the record: ChEMBL document CHEMBL4406921

Provide the reported Intrinsic activity of each item.
- target.entity: Mu-type opioid receptor (Homo sapiens, UniProt P35372)
- Sequence (P35372 whole entry): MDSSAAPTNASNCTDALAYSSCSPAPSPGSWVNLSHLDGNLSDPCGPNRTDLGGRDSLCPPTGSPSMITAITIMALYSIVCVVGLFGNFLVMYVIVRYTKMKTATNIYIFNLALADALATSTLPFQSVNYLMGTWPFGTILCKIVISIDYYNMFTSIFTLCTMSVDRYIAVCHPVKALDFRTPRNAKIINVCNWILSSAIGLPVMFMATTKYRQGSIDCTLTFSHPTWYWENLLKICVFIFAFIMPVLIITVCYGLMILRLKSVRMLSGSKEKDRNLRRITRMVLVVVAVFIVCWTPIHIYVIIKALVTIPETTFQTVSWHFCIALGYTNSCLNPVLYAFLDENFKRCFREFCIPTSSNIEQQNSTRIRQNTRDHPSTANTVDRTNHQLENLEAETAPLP
- method.notes: Antagonist activity at human recombinant mu opioid receptor expressed in CHO-K1 cell membranes assessed as intrinsic activity at 10 pM to 20 uM incubated for 30 mins in presence of Eu-GTP by DELFIA GTP binding assay relative to DAMGO
Write the number in % without appending the unit.

Report Intrinsic activity for "CS(=O)(=O)N(CCN1[C@@H]2CC[C@H]1C[C@@H](c1cccc(C(N)=O)c1)C2)CC1CCCCC1" please.
1

Follow-up item: "NC(=O)c1cccc([C@H]2C[C@H]3CC[C@@H](C2)N3CCN(CC2CCCCC2)C(=O)c2ccco2)c1"
1

// query: "CC(C)NC(=O)N(CCN1[C@@H]2CC[C@H]1C[C@@H](c1cccc(C(N)=O)c1)C2)CC1CCCCC1"
21

// same read-out, input: "COC(=O)N(CCN1[C@@H]2CC[C@H]1C[C@@H](c1cccc(C(N)=O)c1)C2)CC1CCCCC1"
7

Another compound to look at: "CCC(CC)CN(CCCCCCN1[C@@H]2CC[C@H]1C[C@@H](c1cccc(C(N)=O)c1)C2)C(=O)CO"
-2

Next: "NC(=O)c1cccc([C@H]2C[C@H]3CC[C@@H](C2)N3CCN(CC2CCC(F)(F)CC2)C(=O)CO)c1"
-5

Also need "CCC(CC)CN(CCCCCN1[C@@H]2CC[C@H]1C[C@@H](c1cccc(C(N)=O)c1)C2)C(=O)CO" , thanks.
1

Now consider "C[C@H]1CN(CCC(=O)O)CC[C@@]1(C)c1cccc(O)c1" and answer again.
4

Follow-up entry: "CN(C)S(=O)(=O)N(CCN1[C@@H]2CC[C@H]1C[C@@H](c1cccc(C(N)=O)c1)C2)CC1CCCCC1"
0

Then what about the compound "C[C@H]1CN(C[C@H](Cc2ccccc2)C(=O)O)CC[C@@]1(C)c1cccc(O)c1" ?
-8

What about C[N+]1(CC2CC2)CC[C@]23c4c5ccc(O)c4O[C@H]2C(=O)CC[C@@]3(O)[C@H]1C5.[Br-] (some centres not stated) [METHYLNALTREXONE BROMIDE] ?
19

What about this compound? "NC(=O)c1cccc([C@H]2C[C@H]3CC[C@@H](C2)N3CCNCC2CCCCC2)c1"
12

Try this compound next: "CC(C)(C)C(=O)N(CCN1[C@@H]2CC[C@H]1C[C@@H](c1cccc(C(N)=O)c1)C2)CC1CCCCC1"
3

// same read-out, input: "CCC(CC)CN(CCN1[C@@H]2CC[C@H]1C[C@@H](c1cccc(C(N)=O)c1)C2)C(=O)CO"
9

// query: "NC(=O)c1cccc([C@H]2C[C@H]3CC[C@@H](C2)N3CCN(CCCc2ccccc2)C(=O)CO)c1"
-13

Consider next the compound "CCC(CC)CN(CCCCN1[C@@H]2CC[C@H]1C[C@@H](c1cccc(C(N)=O)c1)C2)C(=O)CO" in the same way.
-1

Here is the next compound: "CCC(CC)CN(CCCN1[C@@H]2CC[C@H]1C[C@@H](c1cccc(C(N)=O)c1)C2)C(=O)CO"
3

Again, but for "CC(=O)N(CCN1[C@@H]2CC[C@H]1C[C@@H](c1cccc(C(N)=O)c1)C2)CC1CCCCC1"
-1

Same again, this time with "NC(=O)c1cccc([C@H]2C[C@H]3CC[C@@H](C2)N3CCN(CC2CCOCC2)C(=O)CO)c1"
0

Follow-up item: "NC(=O)c1cccc([C@H]2C[C@H]3CC[C@@H](C2)N3CCN(CC2CCCCC2)C(=O)C(F)(F)F)c1"
9

And what about the compound "CS(=O)(=O)CC(=O)N(CCN1[C@@H]2CC[C@H]1C[C@@H](c1cccc(C(N)=O)c1)C2)CC1CCCCC1" ?
0

Same question for "NC(=O)c1cccc([C@H]2C[C@H]3CC[C@@H](C2)N3CCN(CC2CCCCC2)C(=O)Cc2nnn[nH]2)c1" please.
0
